- Test system: SK-MEL-5 melanoma
- TEST PROTOCOL: NCI tumour cell line growth inhibition, 48 h; in the data active means GI50 below about 0.43 µM; inactive means the rest
Classes used: t (active), f (inactive)

COMPOUND | CLASSIFICATION
O=C(Nc1ccc(OCc2nnc(-c3ccccc3)o2)c(F)c1)Nc1ccc(Cl)c(C(F)(F)F)c1 | f
Clc1ccc(C2=NN[C@H](c3cn(-c4ccccc4)nc3-c3ccccc3)C2)cc1 | f
O=C(Cc1ccccc1)NC(c1ccc(Cl)cc1)c1c(O)ccc2ccccc12 (stereo not given) | f
CC1(C)N=C(N)N=C(N)N1c1cccc(CCCCOc2ccccc2)c1 | t
OCC1OC(n2cnc3c2NC=NC[C@H]3O)CC1O (stereo not given in full) | f
COc1ccc(CCN2CCC(Nc3nc4ccccc4n3Cc3ccc(F)cc3)CC2)cc1 | f
N#C/C(=C1C=C/C(=N\O)C(Cl)=C\1)c1ccccc1 | f
COC1=CC(c2ccc[nH]2)=N/C1=C\c1[nH]c(C)c(C(C)=O)c1C | f
CCn1c(-c2nonc2N)nc2cncc(C(=O)NCCNC)c21 | f
COc1cc(C2CC(c3ccccc3)=NN2C(C)=O)cc(OC)c1OC (stereo not given) | f

---

- Tested on: UACC-62 melanoma
- TEST PROTOCOL: NCI tumour cell line growth inhibition, 48 h
READOUT TYPE: GI50

CPD SMILES | READING
Nc1ccc(-c2nc3ccccc3o2)cc1S | 13.2 µM
COc1ccc(OC)c(/C=C2\COc3ccc(O)c(O)c3C2=O)c1 | 1.79 µM
Cc1sc(NC2=NC(=O)/C(=C\c3ccccc3)S2)nc1-c1nc(NC2=NC(=O)/C(=C\c3ccccc3)S2)sc1C | 7.45 µM
COc1ccc2cc(Cn3cc[n+](Cc4ccc5ccccc5c4)c3)ccc2c1 | 1.49 µM
N#Cc1c(N)nc(NCc2ccccc2)c(C#N)c1-c1ccccc1Cl | 12.4 µM

---

- Test system: NCI-H23 lung
- TEST PROTOCOL: NCI tumour cell line growth inhibition, 48 h

COMPOUND | GI50
Clc1ccc(C2=NN[C@H](c3cn(-c4ccccc4)nc3-c3ccccc3)C2)cc1 | 5.27 µM
CCn1c(-c2nonc2N)nc2cncc(C(=O)NCCNC)c21 | 9.32 µM
CCN(CC)CCCCNc1ncc2cc(-c3cc(OC)cc(OC)c3)c(NC(=O)NC(C)(C)C)nc2n1 | 11.1 µM
CC1(C)N=C(N)N=C(N)N1c1cccc(CCCCOc2ccccc2)c1 | 0.0664 µM
C=Cc1cc(OC)c2c(c1)c(=O)oc1c2cc(OC)c2c(O)ccc(C3OC(C)C(O)C(C)(O)C3O)c21 (stereo not given) | 0.000113 µM

---

In this section, each of the molecules is paired with its reported TGI.
- Test system: PC-3 prostate
- TEST PROTOCOL: NCI tumour cell line growth inhibition, 48 h
Where a SMILES comes first, the peptide text is derived from it.
READOUT TYPE: TGI

MOLECULE | READING
CNC(=O)CNC(=O)C(NC(=O)CNC(=O)C1CCCN1C(=O)C(C)NC(=O)C(NC(C)=O)C(C)C)C(C)C (centres undefined) (Ac-VAPGVG-NHMe; configuration not given here) | > 100 µM
Cc1cc2cc3cc(C)c(N)cc3[n+](C)c2cc1N | 10.3 µM
C[C@@H](CO)C1=CC(C#C[Si](C)(C)C)N(C(=O)Oc2ccccc2)c2ccccc21 (some centres undefined) | 64.1 µM
CCN(CC)CCCC(Cc1ccccc1)Nc1c2ccc(Cl)cc2nc2ccc(OC)cc12 (centres undefined) | 19.1 µM
COc1cc(C2CC(c3ccccc3)=NN2C(C)=O)cc(OC)c1OC (centres undefined) | > 100 µM
COC1=CC(c2ccc[nH]2)=N/C1=C\c1[nH]c(C)c(C(C)=O)c1C | > 100 µM
O=C1C(=c2cc3c(c4ccccc24)=NC24CCCCC2C(c2ccccc2)C=C(c2ccccc2)N34)C(=O)c2ccccc21 (centres undefined) | > 100 µM
COC(=O)C1(Cc2cccc(C)c2)Cc2c(C)cccc2C1=O (centres undefined) | > 100 µM
O=C(Cc1ccccc1)NC(c1ccc(Cl)cc1)c1c(O)ccc2ccccc12 (centres undefined) | 10.6 µM
